Tested on: HT29 colon
procedure_summary: NCI tumour cell line growth inhibition, 48 h
Entries and their measured GI50 follow.

These solved cases illustrate the format of a correct answer.
{"columns": ["compound", "GI50"],
 "data": [
  ["Cc1ccc(NC(=O)c2ccnc(C(F)(F)F)c2)cc1-c1cc(OCCO)nc(N2CCOCC2)c1", "413 nM"],
  ["CCCCCC(=O)N1c2ccccc2NC2=C(C(=O)CC(c3ccc(OC)c(OC)c3)C2)C1c1ccc(C(F)(F)F)cc1 (centres undefined)", "> 100000 nM"],
  ["CC(=O)OCC(=O)[C@@]1(O)[C@H](C)C[C@H]2[C@@H]3C=C(C)C4=Cc5c(cnn5-c5ccc(F)cc5)C[C@]4(C)[C@H]3[C@@H](O)C[C@@]21C", "1320 nM"]
]}

Continue with the compound presented below.
Kindly indicate its recorded GI50. Item: COc1ccc(C2=NNC(c3ccc(-c4ccc(OC)cc4[N+](=O)[O-])o3)C2)cc1 (centres undefined)
44900 nM

====

System: HS 578T breast
procedure_summary: NCI tumour cell line growth inhibition, 48 h; in the data active = GI50 below about 0.43 µM; inactive = the rest
Choose one outcome from this list and give only that: active, inactive

Some entries whose results are on file:
{"columns": ["molecule", "category_label"],
 "data": [
  ["CCN(CC)c1ccc(/C=N/NC(=O)c2ccc(Nc3ccnc(C(F)(F)F)c3)cc2)c(O)c1", "active"],
  ["OCCN(CO)CN(CN(CO)CCO)c1nc(N(CN(CO)CCO)CN(CO)CCO)nc(N(CN(CO)CCO)CN(CO)CCO)n1", "inactive"]
]}

Please indicate how the test categorized "COc1ccc(-c2ccc(/C=N/n3cn[nH]c3=S)o2)c([N+](=O)[O-])c1" .
inactive

Test call for this molecule, please: COC(=O)Nc1ccc2ccc3c(NC(=O)OC)ccc4ccc1c2c43 (tested in a mixture with another compound)
inactive

====

Here the recorded TGI is given for each entry.
Tested on: TK-10 renal
procedure_summary: NCI tumour cell line growth inhibition, 48 h

{"columns": ["compound", "TGI"],
 "data": [
  ["C/C(=N\\NC(N)=S)c1ccc2c(c1)OCO2", "> 100 µM"],
  ["COc1ccc(C2(CN(C)C)COc3cc(OC)c(OC)cc3C2=O)cc1OC (stereo not given)", "> 100 µM"],
  ["N#Cc1c(-c2ccccc2)c(C#N)c(=O)n(NS(=O)(=O)c2ccccc2)c1O", "> 100 µM"],
  ["C1=CCN(c2ccccc2)CC1", "> 100 µM"],
  ["COC(=O)c1c2c(c(C)[n+]([O-])c1C)C(=O)C=C(NCc1ccc(Cl)cc1)C2=O", "8.2 µM"],
  ["CC(=O)c1c2c(cc3c1CC1(Cc4cc5c(cc4C1)CCC5)C3)CCC2", "> 100 µM"]
]}

Retrieve TGI measured for Cc1ccc2c(c1)C(C1Cc3c(C)cccc3C1=O)OC2=O (stereo not given) and print it.
> 100 µM

Quickly give me recorded TGI for CN1CC=C(OP(=O)(NCc2ccccc2)N(CCCl)CCCl)CC1 (stereo not given)
> 100 µM

Give recorded TGI. "CC(=O)OCC(=O)[C@@]1(O)[C@H](C)C[C@H]2[C@@H]3C=C(C)C4=Cc5c(cnn5-c5ccc(F)cc5)C[C@]4(C)[C@H]3[C@@H](O)C[C@@]21C"
6.03 µM

Dear colleague, please send me the reported TGI for "CCN(CC)c1ccc(/C=N/NC(=O)c2ccc(Nc3ccnc(C(F)(F)F)c3)cc2)c(O)c1" when you can.
> 100 µM

Indicate the recorded TGI value for this compound: "COc1ccc(CCN2CCC(C#N)(c3ccc(OC)c(OC)c3)CC2)cc1OC"
> 100 µM

Tell us which TGI value is on record for "COc1n[n+]([O-])c(C)cc1[N+](=O)[O-]"
10.2 µM

Using known records, supply TGI for "COC(=O)c1nc(-c2ccc(Cl)c(Cl)c2)nc2ccccc12"
> 83.5 µM

Please list TGI recorded for the compound CCc1cc(Cc2cc(CC)c(NC(=O)C3=CC(=O)CC(c4ccc(OC)cc4)O3)c(CC)c2Cl)c(Cl)c(CC)c1NC(=O)C1=CC(=O)CC(c2ccc(OC)cc2)O1 (stereo not given)
51.7 µM

Look up and report measured TGI for this entry: COc1ccc(NC(=O)C2=C(SC)C(C#N)C(=O)N=C2N)cc1 (stereo not given)
> 100 µM

Give TGI for "Cc1[nH]c2ncn(/N=C/c3ccccc3)c(=N)c2c1Cc1ccccc1"
> 100 µM

# return recorded TGI for input COc1ncnc2c(NC3OC(CO)C(O)C3O)ncnc12 (stereo not given)
5.97 µM

Supply measured TGI of Cc1ccc(S(=O)(=O)N/N=C2\C(=O)C3CC2C(Cl)C3Cl)cc1 (stereo not given) in your reply.
> 100 µM

Assign TGI to the following record: "COC(=O)c1c/c(=N\NC(=O)CC(=O)Nc2ccccc2Cl)c2ccccc2o1"
> 100 µM

Return TGI for the following compound: "C[C@]12CC[C@H]3[C@@H](CCC4=CC(=O)CC[C@@H]43)[C@@H]1CC[C@@H]2OC1(O)C(=O)c2ccccc2C1=O"
> 100 µM
